Assayed system: hD4.4R (Homo sapiens, UniProt P21917)
Sequence (P21917 1-419): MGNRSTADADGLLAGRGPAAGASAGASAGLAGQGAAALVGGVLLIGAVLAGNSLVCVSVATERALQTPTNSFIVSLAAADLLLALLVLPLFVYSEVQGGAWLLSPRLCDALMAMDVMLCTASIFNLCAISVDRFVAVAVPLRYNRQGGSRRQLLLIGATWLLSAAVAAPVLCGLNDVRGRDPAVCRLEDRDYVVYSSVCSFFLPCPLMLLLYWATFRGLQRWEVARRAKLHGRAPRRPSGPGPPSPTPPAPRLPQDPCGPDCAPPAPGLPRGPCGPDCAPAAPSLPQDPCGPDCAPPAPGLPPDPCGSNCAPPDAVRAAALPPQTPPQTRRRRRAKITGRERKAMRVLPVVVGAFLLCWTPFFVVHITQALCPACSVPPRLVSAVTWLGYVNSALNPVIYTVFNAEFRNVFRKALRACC
Experiment: Cell-based functional GPCR assay, cAMP, CHO-D4R
Run conditions: read-out: IC50, antagonist effect at hD4.4R
Experimental readout: pIC50
Recall that pIC50 is obtained by taking minus log10 of the concentration measured in molar.

Which measured pIC50 value corresponds to O=c1cc(-c2ccc(O)c(O)c2)oc2cc(O)ccc12 [Compound 1, 3′,4′,7-trihydroxyflavone] ?
4.65

----------
Assayed system: hMAO-B (Homo sapiens, UniProt P27338)
Sequence (P27338 whole entry): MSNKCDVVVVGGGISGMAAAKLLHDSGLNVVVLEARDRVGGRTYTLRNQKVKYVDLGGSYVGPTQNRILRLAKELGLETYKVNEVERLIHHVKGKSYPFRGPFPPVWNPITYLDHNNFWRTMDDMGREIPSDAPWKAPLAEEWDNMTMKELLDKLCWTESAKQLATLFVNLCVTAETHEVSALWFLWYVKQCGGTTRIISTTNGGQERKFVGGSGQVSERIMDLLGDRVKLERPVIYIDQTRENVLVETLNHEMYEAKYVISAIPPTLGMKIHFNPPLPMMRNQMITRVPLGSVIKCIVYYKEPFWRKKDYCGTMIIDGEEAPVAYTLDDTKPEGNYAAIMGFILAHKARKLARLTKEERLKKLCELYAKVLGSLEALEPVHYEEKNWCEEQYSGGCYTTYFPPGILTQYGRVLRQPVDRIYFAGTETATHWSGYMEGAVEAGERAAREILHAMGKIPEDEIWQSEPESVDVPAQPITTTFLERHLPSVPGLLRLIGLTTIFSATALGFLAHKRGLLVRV
Experiment: In vitro hMAO-B inhibition and enzyme kinetics, chemiluminescent MAO-Glo assay
Run conditions: recombinant hMAO-B; mean ± SD of triplicate experiments
Experimental readout: pIC50
Note on pIC50: it is the negative log10 of concentration, concentration in mol/L.

Entry `COc1ccc(-c2coc3cc(O)ccc3c2=O)cc1O` has what pIC50?
5.14
